Molecular target: T1, IRF4 DBD L70V (Homo sapiens, UniProt Q15306 20-132, L70V)
T1 sequence: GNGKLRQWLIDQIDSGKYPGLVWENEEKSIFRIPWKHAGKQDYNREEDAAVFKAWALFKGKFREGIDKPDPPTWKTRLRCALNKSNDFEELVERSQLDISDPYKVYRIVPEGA
Experiment: SPR steady state; FP: PBS + 0.05% Tween20, 5 nM DNA, 1 h, room temperature; SPR: Biacore S200, SA chip, protein 0.1-4500 nM, running buffer not given in material; errors are SD
Conditions: protein: recombinant; tags: N-terminal His8-linker-His8-TEV, cleaved; label: 3' biotin; hairpin, TTTT loop

binder	Kd [nM]
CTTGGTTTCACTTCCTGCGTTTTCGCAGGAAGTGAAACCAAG (structured_DNA) [IRE hairpin (biotin)]	167
